target: Serine/threonine-protein kinase BRSK1 (Homo sapiens) (UniProt Q8TDC3); details: at 1 µM;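 further: each value is a mean percent inhibition of BRSK1 kinase activity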
Sequence (Q8TDC3 whole entry): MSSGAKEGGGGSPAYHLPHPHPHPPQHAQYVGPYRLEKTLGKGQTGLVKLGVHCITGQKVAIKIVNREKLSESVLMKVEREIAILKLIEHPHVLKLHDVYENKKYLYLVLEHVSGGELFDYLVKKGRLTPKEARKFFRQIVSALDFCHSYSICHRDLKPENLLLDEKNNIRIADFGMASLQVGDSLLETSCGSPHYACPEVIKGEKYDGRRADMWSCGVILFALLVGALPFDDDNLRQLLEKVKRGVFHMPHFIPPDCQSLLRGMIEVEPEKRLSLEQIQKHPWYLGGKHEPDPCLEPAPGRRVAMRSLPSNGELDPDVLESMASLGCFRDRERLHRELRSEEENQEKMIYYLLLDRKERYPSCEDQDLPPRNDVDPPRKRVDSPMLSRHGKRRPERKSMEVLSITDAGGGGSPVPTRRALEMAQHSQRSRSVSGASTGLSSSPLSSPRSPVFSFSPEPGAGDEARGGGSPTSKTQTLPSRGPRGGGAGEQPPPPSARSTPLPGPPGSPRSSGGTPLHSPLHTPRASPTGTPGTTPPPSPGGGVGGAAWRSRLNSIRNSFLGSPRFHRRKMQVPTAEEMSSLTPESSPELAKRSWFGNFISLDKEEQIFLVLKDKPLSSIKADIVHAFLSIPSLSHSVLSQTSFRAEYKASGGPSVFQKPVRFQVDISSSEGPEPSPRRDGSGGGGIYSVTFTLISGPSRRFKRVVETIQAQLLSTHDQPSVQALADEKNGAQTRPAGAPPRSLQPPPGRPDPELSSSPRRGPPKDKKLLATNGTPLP
property label: inhibition (%)
All answers are understood in %, so give the number only.

Sample `Fc1cccc(COc2ccc(Nc3ncncc3C#Cc3ccccc3)cc2Cl)c1` ; inhibition observed: 3.27

// recorded inhibition for `NC(=O)c1ccc2c(-c3ccnc(NCCCO)n3)c(-c3ccc(F)cc3)nn2c1` : 4.68

According to the records, this molecule `Cc1c2ccc(N(C)c3ccnc(Nc4cccc(S(N)(=O)=O)c4)n3)cc2nn1C` displays inhibition of 3.4

Notebook: `Cc1ccc(-c2cc3c(NC(=O)C4CC4)ncnc3o2)cc1` , inhibition read as 4.69

The value of inhibition measured for the molecule `COc1cccc(-n2ncc3c(N/N=C/c4ccc(C(=O)NCCN(C)C)cc4)ncnc32)c1` turned out to be 67.2

Measured inhibition, `N#Cc1ccc2c(-c3ccnc(NC4CC4)n3)c(-c3ccc(F)cc3)nn2c1` : -0.2

Field inhibition (entry `CNC(=O)c1sc(-n2cnc3cc(OC)c(OC)cc32)cc1OCc1ccccc1C(F)(F)F` ) reads 4.45

// inhibition value for `COc1ccc(Nc2ncc(-c3ccccc3)o2)cc1OC` : 11.5

// inhibition lookup, molecule = CC1=C(C(=O)Nc2ccc3[nH]nc(C)c3c2)C(c2ccc(C(F)(F)F)cc2)CC(=O)N1 (stereo not given) , result: 21.3

Record `COC(=O)Nc1nc2cc(Oc3ccc(NC(=O)Nc4ccccc4)cc3)ccc2[nH]1` . Reported inhibition: 0.34

----------
tested on: Tyrosine-protein kinase ABL1 (Homo sapiens), P00519 [H396P]; conditions: at 0.1 µM
Provide the reported inhibition of each item.
Express the result in % but write the number alone.

Looking up `O=C(O[C@H]1CN[C@H](C#Cc2cc3ncnc(Nc4ccc(OCc5cccc(F)c5)c(Cl)c4)c3s2)C1)N1CCOCC1` , I found its inhibition recorded as 3.67

Entry `CN(c1ccc(NC(=O)NCCN2CCOCC2)cc1)c1ccnc(Nc2ccc(CS(C)(=O)=O)cc2)n1` — recorded inhibition = 4.8

Short answer for `COc1ccc(-c2nn3ncccc3c2-c2ccnc(Nc3ccc(F)c(F)c3)n2)cc1` : inhibition was 4.57

Notebook: `Cc1nnc(-c2cccc(-c3ccc(C(=O)NCC4CC4)cc3)c2)o1` , inhibition read as 4.09

# inhibition (molecule: `CCS(=O)(=O)c1ccc(OC)c(Nc2ncc(-c3cccc(C(C)=O)c3)o2)c1` ) is 19.3

// sample `NS(=O)(=O)c1ccc(N/N=C2\C(=O)Nc3cccc(CCc4ccncc4)c32)cc1` , its inhibition was 2.64

inhibition reading for `COc1ccccc1-c1cc(/C=C2\C(=O)Nc3ncc(Br)cc32)cc(Br)c1O` : 6.17

Quick note, inhibition for `COc1ccc2ncn(-c3cc(O[C@H](C)c4ccccc4C(F)(F)F)c(C(N)=O)s3)c2c1` landed at -0.02

inhibition recorded for this molecule, `N#Cc1ccc2c(-c3ccnc(NC4CC4)n3)c(-c3ccc(F)cc3)nn2c1` , is -0.57

Measured inhibition, CC1=C(C(=O)Nc2ccc3[nH]nc(C)c3c2)C(c2ccc(C(F)(F)F)cc2)CC(=O)N1 (stereo not drawn) : 4.06

// sample `COc1c(C(N)=O)cc(-c2ccc(Cl)cc2)cc1-c1ccc(S(N)(=O)=O)cc1` , its inhibition was 3.77

Please fill in: inhibition reported for `COc1cc(N2CCN(C(C)C)CC2)ccc1Nc1nc(Nc2cccc(F)c2C(=O)O)c2cc[nH]c2n1` = 1.72

The recorded inhibition for entry `O=C1Nc2ccccc2/C1=C1\CCc2cc(O)ccc21` equals 5.59

Form: molecule = `CCN1CCC(C(=O)Nc2n[nH]c3nnc(-c4cccc(F)c4F)cc23)CC1` ; inhibition = 0.08

Reported inhibition of `CNC(=O)c1ncccc1Nc1nc(Nc2cc3c(cc2OC)CCCN3C(=O)CN(C)C)nc2[nH]ccc12` : 2.6

Per the records, this molecule ( `CNC(=O)c1cncc(/C=C/c2ccccc2C)c1` ) has inhibition equal to 6.03

Lab book: inhibition of `CS(=O)(=O)CCNCc1ccc(-c2ccc3ncnc(Nc4ccc(OCc5ccccc5)cc4)c3c2)o1` noted as 4.24

molecule `CCCNc1cccc(-n2ncc3c(N/N=C/c4ccncc4)ncnc32)c1` , inhibition observed: 37.5

Entry `Cc1cc(O)cc(C)c1/C=C/c1cncc(C(=O)OC(C)(C)C)c1` , inhibition reported as 7.59

Reported inhibition ( `Cc1cc(O)cc(C)c1/C=C/c1cncc(C(N)=O)c1` ) = 20.4

Record `COc1cc2c(cc1Nc1nc(Nc3cccc(F)c3C(N)=O)c3cc[nH]c3n1)N(C(=O)CN1CCN(C(C)C)CC1)CC2` , field inhibition: -1.59

The molecule listed as `COc1cc(N2CCN(C(C)C)CC2)ccc1Nc1nc(Nc2cccc3ncccc23)c2cc[nH]c2n1` shows inhibition equal to 2.17

Consider `O=C(O[C@H]1CN[C@H](C#Cc2cc3ncnc(Nc4ccc5c(cnn5Cc5ccccc5)c4)c3s2)C1)N1CCOCC1` . Its measured inhibition is -0.26

So, `O=C(Nc1n[nH]c2nnc(-c3cccnc3)cc12)C1CC1` ? Its inhibition was 0.14

# inhibition of `O=C(O[C@H]1CN[C@H](C#Cc2cc3ncnc(Nc4ccc5c(ccn5Cc5cc(F)ccc5F)c4)c3s2)C1)N1CCOCC1` = 4.04

# inhibition (molecule: `Cn1c(-c2nonc2N)nc2cnccc21` ) is 2.83

Reported inhibition for `Fc1cccc(COc2ccc(Nc3ncncc3C#Cc3ccccc3)cc2Cl)c1` was 3.58

Entry `c1cnn2ncc(-c3ccnc(NCCCN4CCOCC4)n3)c2c1` ; inhibition = 3.45

Record `CCn1c(-c2nonc2N)nc2cncc(C(=O)NCCNC)c21` . Reported inhibition: 3.77

// field: inhibition; key: `COc1cc(Nc2ncc(-c3ccccc3)o2)cc(OC)c1` ; value = 9.34

inhibition measured on `Cc1c2ccc(N(C)c3ccnc(Nc4cccc(S(N)(=O)=O)c4)n3)cc2nn1C` = 37.9

Record `CN(C)CCNC(=O)Nc1ccc(N(C)c2ccnc(Nc3ccc(CS(C)(=O)=O)cc3)n2)cc1` , field inhibition: 5.45

Summary for this molecule, `CS(=O)(=O)CCNCc1ccc(-c2ccc3ncnc(Nc4ccc(OCc5cccc(C(F)(F)F)c5)cc4)c3c2)o1` : inhibition is 3.55
